Origin of the recorded values: patent US20260132197A1

Measured kon values are reported for all entries that follow.
Biological target: T1, Human CD47-C33G (human, UniProt Q08722 19-135)
T1 construct: also called CD47 mutein with C33G mutation
T1 sequence (Q08722 19-135 C33G limits assumed): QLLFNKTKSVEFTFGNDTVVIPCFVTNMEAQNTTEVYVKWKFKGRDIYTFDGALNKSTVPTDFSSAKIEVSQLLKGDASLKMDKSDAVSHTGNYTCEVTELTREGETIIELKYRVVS
Assay: SPR, IgG captured, CD47 in flow; exp 2;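 note: rates derived from association and dissociation curves, KD estimated from them, C33G mutein used to avoid CD47 IgV homodimers for true monovalent affinity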
Expressed in M⁻¹ s⁻¹, but write only the number.

108VH10 / 108VL10.Ma (antibody, V domains shown, 4D5-framework series; constant regions not restated for this series; also called VH10 VL10.Ma) VH: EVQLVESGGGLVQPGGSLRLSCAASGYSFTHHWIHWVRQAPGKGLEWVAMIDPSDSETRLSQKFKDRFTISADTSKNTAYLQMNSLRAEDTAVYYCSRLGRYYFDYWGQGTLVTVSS VL: DIQMTQSPSSLSASVGDRVTITCRASQSISSYLNWYQQKPGKAPKLLIYGASNRYTGVPSRFSGSRSGTDFTLTISSLQPEDFATYYCGESYGHLYTFGQGTKVEIK = 360000
108VH10.Mc / 108VL10.M1 (antibody, V domains shown, 4D5-framework series; constant regions not restated for this series; also called VH10.Mc VL10.M1) VH: EVQLVESGGGLVQPGGSLRLSCAASGYSFTHHWISWVRQAPGKGLEWVAMIDPSDSETRLSQKFKDRFTISADTSKNTAYLQMNSLRAEDTAVYYCSRLGRYYFDYWGQGTLVTVSS VL: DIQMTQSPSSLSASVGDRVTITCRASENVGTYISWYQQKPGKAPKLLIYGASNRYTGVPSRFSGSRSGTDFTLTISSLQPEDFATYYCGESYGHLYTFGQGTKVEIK = 61000

Turning to the following binder.
Specify kon for 108VH10 / 108VL10.M1 (antibody, V domains shown, 4D5-framework series; also called VH10 VL10.M1; straight-graft antibody) VH: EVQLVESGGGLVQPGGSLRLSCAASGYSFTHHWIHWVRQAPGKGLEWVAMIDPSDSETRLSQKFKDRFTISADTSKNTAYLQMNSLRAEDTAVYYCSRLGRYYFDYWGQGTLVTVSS VL: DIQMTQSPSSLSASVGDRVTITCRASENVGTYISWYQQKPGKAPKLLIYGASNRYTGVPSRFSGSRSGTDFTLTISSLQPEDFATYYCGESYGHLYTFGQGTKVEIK and stop.
87000
